# reported IC50; entries follow
- MEASURED ON: 5-hydroxytryptamine receptor 1B (Homo sapiens)
- Sequence (P28222 whole entry): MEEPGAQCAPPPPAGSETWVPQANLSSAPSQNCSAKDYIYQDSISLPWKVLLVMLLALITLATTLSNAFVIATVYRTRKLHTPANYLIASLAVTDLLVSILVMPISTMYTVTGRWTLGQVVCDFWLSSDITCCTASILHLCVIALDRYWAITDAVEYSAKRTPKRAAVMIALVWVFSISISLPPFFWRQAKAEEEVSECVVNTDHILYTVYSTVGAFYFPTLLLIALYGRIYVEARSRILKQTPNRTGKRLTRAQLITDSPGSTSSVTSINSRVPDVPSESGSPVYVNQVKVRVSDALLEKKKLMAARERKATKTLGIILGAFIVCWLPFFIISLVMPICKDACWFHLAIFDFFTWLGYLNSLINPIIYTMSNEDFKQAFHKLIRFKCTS
- ASSAY REMARKS: Binding affinity at cloned human 5-hydroxytryptamine 1B receptor stably expressed in CHO cells by [3H]5-HT displacement.
- Type: cell-based
Put down the number, then write its unit next to it.

Q) Quote IC50 reported for CN(C1CCN(CCCc2c[nH]c3ccc(-n4cnnc4)cc23)CC1)[C@H](CO)c1ccccc1 please.
A) 71 nM

Q) Quote IC50 reported for CS(=O)(=O)NC[C@H](NC1CCN(CCCc2c[nH]c3ccc(-n4cnnc4)cc23)CC1)c1ccccc1 please.
A) 78 nM

Q) Quote IC50 reported for CN(C1CCN(CCCc2c[nH]c3ccc(-n4cnnc4)cc23)CC1)[C@@H](CO)c1ccccc1 please.
A) 210 nM

Q) Quote IC50 reported for CC(CO)(NC1CCN(CCCc2c[nH]c3ccc(-n4cnnc4)cc23)CC1)c1ccccc1 (centres undefined) please.
A) 98 nM

Q) Quote IC50 reported for CC#CCN(C)C1CCN(CCCc2c[nH]c3ccc(-n4cnnc4)cc23)CC1 please.
A) 81 nM

* * *

- MEASURED ON: 5-hydroxytryptamine receptor 1D (Homo sapiens, UniProt P28221)
- Sequence (P28221 whole entry): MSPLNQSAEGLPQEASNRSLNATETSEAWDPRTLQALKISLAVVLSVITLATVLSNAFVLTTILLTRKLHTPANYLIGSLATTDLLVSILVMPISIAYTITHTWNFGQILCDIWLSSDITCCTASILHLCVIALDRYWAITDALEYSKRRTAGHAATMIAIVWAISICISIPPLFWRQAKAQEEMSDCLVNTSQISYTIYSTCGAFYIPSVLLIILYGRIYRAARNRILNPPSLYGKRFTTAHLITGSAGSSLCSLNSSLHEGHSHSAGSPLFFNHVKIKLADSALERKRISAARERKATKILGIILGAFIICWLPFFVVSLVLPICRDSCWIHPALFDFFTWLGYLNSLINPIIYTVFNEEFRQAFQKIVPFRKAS
- ASSAY REMARKS: Agonist-induced [35S]- GTPgammaS binding in CHO cells stably transfected with 5-hydroxytryptamine 1D receptor
- Assay type: cell-based
REPORTED ENDPOINT: EC50 (nM)
// return numeric value only (unit: nM, not printed)

C[C@@H](NC1CCN(CCCc2c[nH]c3ccc(-n4cnnc4)cc23)CC1)C(=O)Nc1ccccc1	15

Would you kindly look at the next entry?
Q) Quote EC50 reported for OC[C@H](NC1CCN(CCCc2c[nH]c3ccc(-n4cnnc4)cc23)CC1)c1ccccc1 please.
A) 1.7

* * *

- MEASURED ON: 5-hydroxytryptamine receptor 1D (Homo sapiens, UniProt P28221)
- ASSAY REMARKS: Maximum stimulation of [35S]GTP-gamma-S, binding in CHO cells expressing human 5-HT-1d relative to 5-HT
- Assay type: functional, cell-based
REPORTED ENDPOINT: Efficacy (%)
// return numeric value only (unit: %, not printed)

CC(CO)(NC1CCN(CCCc2c[nH]c3ccc(-n4cnnc4)cc23)CC1)c1ccccc1 (centres undefined)	59
OC[C@H](NC1CCN(CCCc2c[nH]c3ccc(-n4cncn4)cc23)CC1)c1ccccc1	77
C[C@@H](NC1CCN(CCCc2c[nH]c3ccc(-n4cnnc4)cc23)CC1)C(=O)Nc1ccccc1	61
COC[C@H](NC1CCN(CCCc2c[nH]c3ccc(Cn4cncn4)cc23)CC1)c1ccc(F)cc1	89
C[C@@H](NC1CCN(CCCc2c[nH]c3ccc(-n4cncn4)cc23)CC1)c1ccccc1	69
CC(=O)Nc1ccc(CNC2CCN(CCCc3c[nH]c4ccc(-n5cnnc5)cc34)CC2)cc1	75

Q) Quote Efficacy reported for CC(=O)Nc1ccc([C@H](C)NCC2CCN(CCCc3c[nH]c4ccc(-n5cnnc5)cc34)CC2)cc1 please.
A) 99

Q) Quote Efficacy reported for OCCC(NC1CCN(CCCc2c[nH]c3ccc(-n4cnnc4)cc23)CC1)c1ccccc1 (centres undefined) please.
A) 100

Q) Quote Efficacy reported for c1cc(CNC2CCN(CCCc3c[nH]c4ccc(-n5cnnc5)cc34)CC2)co1 please.
A) 65

* * *

- ASSAY REMARKS: Ratio of IC50 for human 5-HT1B to human 5-HT1D receptors
Response key: t means Selectivity >= 20; f means Selectivity < 20.

Q) Is it the case that OC[C@H](NCC1CCN(CCCc2c[nH]c3ccc(-n4cnnc4)cc23)CC1)c1ccccc1 has Selectivity reaching or exceeding 20?
A) f

Q) Is it the case that CC(=O)Nc1ccc(CN(C)C2CCN(CCCc3c[nH]c4ccc(-n5cnnc5)cc34)CC2)cc1 has Selectivity reaching or exceeding 20?
A) f

Q) Is it the case that C[C@H](NCC1CCN(CCCc2c[nH]c3ccc(-n4cnnc4)cc23)CC1)c1ccccc1 has Selectivity reaching or exceeding 20?
A) f

Q) Is it the case that C[C@@H](NC1CCN(CCCc2c[nH]c3ccc(-n4cnnc4)cc23)CC1)[C@H](O)c1ccccc1 has Selectivity reaching or exceeding 20?
A) f

Q) Is it the case that CN(Cc1ccccc1)CC1CCN(CCCc2c[nH]c3ccc(-n4cnnc4)cc23)CC1 has Selectivity reaching or exceeding 20?
A) t

Q) Is it the case that C[C@H](NC1CCN(CCCc2c[nH]c3ccc(-n4cnnc4)cc23)CC1)c1ccccc1 has Selectivity reaching or exceeding 20?
A) t

Q) Is it the case that c1ccc(CNC2CCN(CCCc3c[nH]c4ccc(-n5cnnc5)cc34)CC2)nc1 has Selectivity reaching or exceeding 20?
A) f

Q) Is it the case that OC[C@H](NC1CCN(CCCc2c[nH]c3ccc(-n4cnnc4)cc23)CC1)c1ccccc1 has Selectivity reaching or exceeding 20?
A) t

Q) Is it the case that c1ccc(CNCC2CCN(CCCc3c[nH]c4ccc(-n5cnnc5)cc34)CC2)cc1 has Selectivity reaching or exceeding 20?
A) f
